Biological target: Cathepsin S (UniProt P25774 115-331)
Sequence (P25774 115-331 limits assumed): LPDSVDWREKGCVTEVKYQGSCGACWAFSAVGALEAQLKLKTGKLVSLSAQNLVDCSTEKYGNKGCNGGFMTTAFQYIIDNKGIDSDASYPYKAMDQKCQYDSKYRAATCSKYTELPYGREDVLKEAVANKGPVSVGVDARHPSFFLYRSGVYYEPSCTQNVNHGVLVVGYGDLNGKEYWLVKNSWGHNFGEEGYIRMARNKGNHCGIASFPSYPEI
Assay: fluorescence-based enzyme inhibition assay
Positions of bridges follow the written chain, without caps; N, C: chain ends. No end group written: not given here. alpha,alpha'‑meta‑xylylene = alpha,alpha'-meta-xylylene linker (from a,a'-dibromo-meta-xylene) bridging two cysteines via bis-thioether
ASSAY READOUT: Ki (µM)

a. LPPKYCELLC (linker 6-10 via alpha,alpha'‑meta‑xylylene) [LPPKYCELLC (SEQ ID NO:74)]
b. IPPKYCEQLC (linker 6-10 via alpha,alpha'‑meta‑xylylene, also called compound (Ia)) [IPPKYCEQLC (SEQ ID NO:85)]
c. LGKREVTIPPKYCELLC (linker 13-17 via alpha,alpha'‑meta‑xylylene, 17 amino acids) [LGKREVTIPPKYCELLC (SEQ ID NO:67)]
Order the items by recorded Ki; the first position goes to the largest value. Thanks in advance for listing the labels in the requested order.
a, c, b
(a: 46.3 µM, c: 31.5 µM, b: 21.4 µM)

P. APPKYCELLC (linker 6-10 via alpha,alpha'‑meta‑xylylene) [APPKYCELLC (SEQ ID NO:72)]
Q. LFKREVTIPPKYCELLC (linker 13-17 via alpha,alpha'‑meta‑xylylene, 17 amino acids) [LFKREVTIPPKYCELLC (SEQ ID NO:68)]
// task: argmin of Ki over [ P , Q ] // return label of chosen record
P

I. IPPKYCALLC (linker 6-10 via alpha,alpha'‑meta‑xylylene) [IPPKYCALLC (SEQ ID NO:84)]
II. IPPRYCELLC (linker 6-10 via alpha,alpha'‑meta‑xylylene) [IPPRYCELLC (SEQ ID NO:80)]
Choose between I and II : whose measured Ki value is numerically larger? // return label of chosen record
II
